# target entity: human form of induced nitric oxide synthase (Homo sapiens)
# Construct: Nitric oxide synthase is produced by cells in response to interferon; endogenous in cells; crude lysate
# procedure summary: activity against the human form of induced nitric oxide synthase, lysate of induced human colon adenocarcinoma cell line DLD1
# condition details: IL-1β and IFN-γ induced, preincubated 1 hour at 37° C., then 1 hour at 37° C., read-out: IC50 (concentration of drug substance which gives 50% enzyme inhibition in the assay)
Counter-ions that a name gives are not always drawn.
Give IC50 for every item shown.

Lookup: Field request: IC50 | item: CCOC(=O)NCCC1N=C(N)c2ccccc2N1 (centres unmarked) [Example 52, hydrochloride]
Found: < 25 µM

Lookup: Need IC50, item NC1=NC(c2ccccc2)Nc2ccccc21 (centres unmarked) [Example 1, hydrochloride]
Found: < 25 µM

These data points were gathered from patent US5883102A.
